I'd be grateful if you could share measured Average for these entries.
# Tested on: BALB/c mice
# assay.overview: Rescue from dexamethasone-induced spleen and thymus weight and cell loss in mice
# Type: in vivo, mouse
# study.conditions: average of spleen weight, spleen cell number, thymus weight, thymus cell number; Normal = 100%, DEXA alone 47%
Where no end group is shown, it is not given here. [ ]: non-standard residue; d: D form. Aib = CC(C)(N)C(=O)O
Answer format: numeric, % implied, no suffix.

Noted for 8 (LPPVPYP) [compound 8] : its Average reads 60

Noted for 42 (LPPLPYP) [compound 42] : its Average reads 59

Noted for 2 (LPPLPY[Aib]) [compound 2] : its Average reads 65

Noted for 5 ([dL]PPH[Aib]Y-NH2; N-terminus assumed; SMILES CC(C)C[C@@H](N)C(=O)N1CCC[C@H]1C(=O)N1CCC[C@H]1C(=O)N[C@@H](Cc1c[nH]cn1)C(=O)NC(C)(C)C(=O)N[C@@H](Cc1ccc(O)cc1)C(N)=O) [compound 5] : its Average reads 68

Noted for 37 (Ac-PPL[Aib]Y-NH2; SMILES CC(=O)N1CCC[C@H]1C(=O)N1CCC[C@H]1C(=O)N[C@@H](CC(C)C)C(=O)NC(C)(C)C(=O)N[C@@H](Cc1ccc(O)cc1)C(N)=O) [compound 37] : its Average reads 55

Noted for 11 ([dL]PPHPYP) [compound 11] : its Average reads 68

Noted for 9 (LPPSPYP) [compound 9] : its Average reads 61

Noted for 10 (LPPHPYP) [compound 10] : its Average reads 65

Noted for 4 ([dP]PL[Aib]Y-NH2; N-terminus assumed; SMILES CC(C)C[C@H](NC(=O)[C@@H]1CCCN1C(=O)[C@H]1CCCN1)C(=O)NC(C)(C)C(=O)N[C@@H](Cc1ccc(O)cc1)C(N)=O) [compound 4] : its Average reads 61

====

# Tested on: BALB/c mice
# assay.overview: Rescue from dexamethasone-induced spleen and thymus weight and cell loss in mice
# Assay type: in vivo, mouse
# study.conditions: relative to Normal mice = 100% (DEXA alone 44%); dexamethasone 100 μg IP; peptide 200 μg/mouse IV immediately and 24 hours after; sacrificed 48 hours
Where no end group is shown, it is not given here. [ ]: non-standard residue; d: D form. Aib = CC(C)(N)C(=O)O
reported.metric: Thymus Weight (%)
Answer format: numeric, % implied, no suffix.

Noted for 9 (LPPSPYP) [compound 9] : its Thymus Weight reads 55

Noted for 10 (LPPHPYP) [compound 10] : its Thymus Weight reads 56

Noted for 42 (LPPLPYP) [compound 42] : its Thymus Weight reads 47

Noted for 4 ([dP]PL[Aib]Y-NH2; N-terminus assumed; SMILES CC(C)C[C@H](NC(=O)[C@@H]1CCCN1C(=O)[C@H]1CCCN1)C(=O)NC(C)(C)C(=O)N[C@@H](Cc1ccc(O)cc1)C(N)=O) [compound 4] : its Thymus Weight reads 55

Noted for 8 (LPPVPYP) [compound 8] : its Thymus Weight reads 53

Reference for the values: patent US20230049549A1
